# assay explanation: viability of HCT116 lacking mutant beta-catenin – cell-based, DP diverse set, validation, pilot screen (AID 1004)
# stated conditions: HCT116 (mutant beta-catenin deleted) viability, CellTiter-Glo, 60 h; at 10 µM
Activity calls are given as the source filed them.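 Rule for the calls: active = viability at 10 µM of 29.74% or lower, 3 SD below the compound median; inactive = the rest.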
Labels: active, inactive

| molecule | assigned class |
| --- | --- |
| COc1ccc(CCN(C)CCCN2CCc3cc(OC)c(OC)cc3CC2=O)cc1OC | inactive |
| CCCC[C@@H](C=O)NC(=O)[C@H](CC(C)C)NC(=O)[C@H](CC(C)C)NC(C)=O | active |
| NCC(=O)N[C@@H](CCCN=C(N)N)C(=O)NCC(=O)N[C@@H](CC(=O)O)C(=O)N[C@@H](CC(N)=O)C(=O)N1CC[C@@H](C(=O)O)C1 | inactive |
| O=c1c(-c2ccc(O)cc2)coc2cc(O)cc(O)c12 | inactive |
| C=CCc1ccc(O)c(-c2cc(CC=C)ccc2O)c1 | inactive |
| COc1cc(-c2ccc(=O)[nH]n2)ccc1OC(F)F | inactive |
| CC1=C(/C=C/C(C)=C/C=C/C(C)=C/C=C/C=C(C)/C=C/C=C(C)/C=C/C(=O)[C@]2(C)C[C@@H](O)CC2(C)C)C(C)(C)C[C@H](O)C1 | inactive |
| Cn1c(=O)c2[nH]cnc2n(C)c1=O | inactive |
| O=c1c(O)c(-c2ccc(O)c(O)c2)oc2cc(O)cc(O)c12 | inactive |

* * *

# assay explanation: viability of HCT116 lacking mutant beta-catenin – cell-based, DP diverse set, validation, pilot screen (AID 1004)
# stated conditions: HCT116 (mutant beta-catenin deleted) viability, CellTiter-Glo, 60 h; at 10 µM; hits give low values

| molecule | measurement units | viability |
| --- | --- | --- |
| COc1cc2c(c(OC)c1OC)-c1ccc(OC)c(=O)cc1[C@@H](NC(C)=O)CC2 | % | 39.6 |
| COC(=O)c1cc2c(s1)-c1ccccc1OC2 | % | 98 |
| COc1cc([C@@H]2c3cc4c(cc3[C@H](O)[C@H]3COC(=O)[C@H]23)OCO4)cc(OC)c1OC | % | 37.4 |
| CO/N=C(\C(=O)N[C@@H]1C(=O)N2C(C(=O)O)=C(COC(C)=O)CS[C@H]12)c1csc(N)n1 | % | 96.4 |
| O=C(c1ccccc1)c1ccccc1 | % | 97.8 |

* * *

# assay explanation: viability of HCT116 lacking mutant beta-catenin – cell-based, DP diverse set, validation, pilot screen (AID 1004)
# stated conditions: HCT116 (mutant beta-catenin deleted) viability, CellTiter-Glo, 60 h; at 10 µM
Active and inactive are the calls of the source.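 The calls were made as follows: active = viability at 10 µM of 29.74% or lower, 3 SD below the compound median; inactive = the rest.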
Possible outcomes: class 1 for active, class 0 for inactive

| compound | assigned class |
| --- | --- |
| C=C1OC(CO)(n2cnc3c(N)ncnc32)C(O)C1O (stereo not given) | class 0 |
| CN1C2CCC1CC(OC(=O)C(CO)c1ccccc1)C2 (stereo not given) | class 0 |
| Cc1ccc(Cl)c(Nc2ccccc2C(=O)O)c1Cl | class 0 |
| Cn1cnc2c(NCc3ccccc3)nc(NCCO)nc21 | class 0 |
| Cc1c2oc3c(C)ccc(C(=O)N[C@@H]4C(=O)N[C@H](C(C)C)C(=O)N5CCC[C@H]5C(=O)N(C)CC(=O)N(C)[C@@H](C(C)C)C(=O)O[C@@H]4C)c3nc-2c(C(=O)N[C@@H]2C(=O)N[C@H](C(C)C)C(=O)N3CCC[C@H]3C(=O)N(C)CC(=O)N(C)[C@@H](C(C)C)C(=O)O[C@@H]2C)c(N)c1=O | class 1 |
| C=C(CCC12O[C@H](C(=O)O)[C@@](O)(C(=O)O)[C@](C(=O)O)(O1)[C@H](OC(=O)/C=C/[C@@H](C)C[C@@H](C)CC)[C@H]2O)[C@@H](OC(C)=O)[C@H](C)Cc1ccccc1 | class 0 |
| CC12CC3(O)OC(O1)C1(COC(=O)c4ccccc4)[C@@H]3CC21O[C@@H]1O[C@H](CO)[C@@H](O)[C@H](O)[C@H]1O | class 0 |
| CC1=C(/C=C/C(C)=C/C=C/C(C)=C/C(=O)O)C(C)(C)CCC1 | class 0 |
| CC1COC2=C1C(=O)C(=O)c1c2ccc2c1CCCC2(C)C (stereo not given) | class 0 |
| COc1ccc2cc([C@H](C)C(=O)O)ccc2c1 | class 0 |
